compound	melting point
CN(C)c1nc(Cl)nc(Cl)n1	123 to 124 °C
COCC(=O)N[C@H]1CC[C@H](CCN2CCN(c3nccc4c3OCC4)CC2)CC1	126 °C
CCN(CC)c1ccc(/C=C/c2cc(/C=C/c3ccc4cc[nH]c4c3)[nH]n2)c(OC)c1	104 to 108 °C
COC(=O)Oc1cc2c(c(O)c1C)C(=O)c1c(OC)c3c(c(O)c1C2=O)-c1c(cc2cnn(-c4ccccc4)c(=O)c2c1O)CC3	> 350 °C
COc1cccc(S(=O)(=O)N2c3cc(F)ccc3-c3ccc(F)cc3C2C)c1 (centres undefined)	147 to 149 °C
CCCCCCc1ccc(CCCCC(COC(C)=O)(COC(C)=O)NC(C)=O)cc1	61 to 64 °C
CCC(=O)Nc1ccc(-n2cc(CCCOc3c(CC(=O)O)cccc3OC)c(C(C)C)n2)nc1	147 to 148 °C
CCCCNc1ccc(S(=O)(=O)N2CC(N(Cc3ccccc3)C(=O)OC(C)(C)C)C2)cc1	115 to 116 °C
COC(=O)c1ccc(CCl)nc1	63.5 to 63.8 °C

====

Recorded melting point values for a group of compounds are listed next.
propertyLabel: melting point

compound	result
CN1CCN(C(c2ccc(Cl)cc2)c2ccccc2C(=O)O)CC1 (stereo not given)	144 to 150 °C
Cc1c(C)c(N2Cc3ccccc3C2)c(C)c2c1OC(C)(C)C2c1ccc(F)cc1 (stereo not given)	204 to 205 °C
Cc1cc(N2CCN(Cc3ccc(F)cc3)C2=O)sc1C(=O)NCc1nc2ccccc2[nH]1	265 to 267 °C
CC(C)c1ccccc1Sc1c(O)cc(-c2ccc(OCc3ccccc3)cc2)oc1=O	163 to 165 °C
O=C(Nc1ccc(C(F)(F)F)cc1)C12CC3CC(CC(C3)C1)C2	189 to 193 °C
O=C(O)c1ccc2c(=O)n3nc(C(=O)O)ccc3nc2c1	> 360 °C
O=C1C2C3C=CC(C4CC34)C2C(=O)N1c1ccc([N+](=O)[O-])cc1 (stereo not given)	210 to 212 °C
CC(=O)c1c2c(c(C)[nH]c1=O)CC(c1ccccn1)CC2 (stereo not given)	254 to 256 °C
COC(=O)CC[C@H](NC(=O)CCCCCCC1CNc2nc(NC(=O)C(C)(C)C)nc(O)c2C1)C(=O)OC (stereo not given in full)	152 to 160 °C
COC(=O)C1OC(OC(=N)C(Cl)(Cl)Cl)C(OC(C)=O)C(OC(C)=O)C1OC(C)=O (stereo not given)	108 °C
COC(=O)CCSc1c(C(N)=O)sc2ccc(OC)cc12	142 to 144 °C
CCCCCCCCCCCCCCCCCC(=O)n1cc(F)c(=O)[nH]c1=O	101 °C
CCCN(C1CC(C)(C)Oc2ccc(OCc3ccccc3)cc21)S(=O)(=O)CC (stereo not given)	102 to 103 °C
CCC(O)(C#Cc1ncn2c1CN(C)C(=O)c1c(Cl)cccc1-2)CC	186 to 188 °C
CC(C)(C)C(=O)OCCn1nc(-c2cc(C(C)(C)C)c(O)c(C(C)(C)C)c2)c2cccnc21	85 to 87 °C
Cn1c(=O)n(O)c(=O)c2cc(F)c(N3CCCC3)cc21	> 250 °C
COc1cccc(Cc2oc3ccc(OC)cc3c2CC#N)c1	81 °C
CCCCc1ncc(CC(Cc2ccccc2)C(=O)O)n1Cc1ccccc1 (stereo not given)	148 to 150 °C
CCCCc1nc2cccc(COC)c2n1Cc1ccc(-c2ccccc2CO)cc1	126 to 127 °C
O=C1CCOc2c(O)cccc21	93 to 96 °C
Cc1ccc2c(N3CCc4ccc(Cl)cc43)ncnc2c1	265 °C
CNC(=O)Nc1n[nH]c(-c2ccncc2)c1-c1ccc(F)cc1	212 to 213 °C
OC(CSCc1ccc(Cl)cc1)C12CC3CC(CC(C3)C1)C2 (stereo not given)	74 to 79 °C
COc1cccc(Cc2cc3cccc(-c4cccc(C(=O)Nc5ccc(F)nc5)c4)c3o2)c1	196 to 199 °C
COc1c(O)c(C)c2c(c1OC)Nc1ccccc1S2	218 to 220 °C
O=c1[nH]c2ccc(Cl)cc2c2cc(CO)nn12	316 to 318 °C
CSc1ncncc1C(Cl)c1ccccc1F (stereo not given)	144 to 145 °C
CCOC(CCCN1CCC(NC(=O)c2ccccc2)CC1)OCC	95 °C
CCC1(CC)NC(=O)Oc2ccccc21	160 to 162 °C
CCn1cc(C)c(NS(=O)(=O)c2ccc(N)cc2)nc1=O	176 to 178 °C
COc1cc2ncc(C#N)c(Nc3ccc(C)c(Br)c3)c2cc1OC	292 to 294 °C
NC(=O)c1sc2nccc(N3CCN(c4ccccc4)CC3)c2c1N	250 to 252 °C
COc1cc2ncnc(N3CCC(O)(CCI)CC3)c2cc1OC	179 to 181 °C
CC(=O)OCCn1c([N+](=O)[O-])cnc1C	143 to 145 °C
O=C(c1c(-c2ccccc2)oc2ccccc2c1=O)N1CCN(c2ccccn2)CC1	178 to 181 °C
CN(CC(O)CO)C(=O)c1c(I)c(C#N)c(I)c(C(=O)NCC(O)CO)c1I (stereo not given)	215 °C
Cc1cc(-c2cc(C(F)(F)F)n3ncc(C(=O)Nc4cccc(S(=O)(=O)NC5CC5)c4)c3n2)ccc1C(F)(F)F	201 °C
CN(C)C1CCN(C2CCN(c3ncc4ncnc(Nc5ccc(F)c(Cl)c5)c4n3)CC2)CC1	160 to 165 °C
CCCC1=C(C(=O)OCC)C(c2ccccc2Cl)c2cnn(C(=O)OC(C)(C)C)c2N1 (stereo not given)	112 to 116 °C
COC(=O)CCCc1cc2cc(Cl)ccc2n1S(=O)(=O)c1ccc(N)c([N+](=O)[O-])c1	157 °C
